Target: T1, HLA-A*0201 molecule expressed on human tumor cell line T2 (human)
T1 construct: surface HLA-A2 read with anti-HLA-A2 antibody BB7.2-PE by FACS; also called HLA-A2
Experiment: T2 cell HLA-A2 stabilisation, FACS; ratio of 20% concentration to that of HIV pol 589-597 (lower = stronger)
parameter: In vitro binding affinity (relative affinity)
I only need the number, thanks.

| binder | numericResult |
| --- | --- |
| ALPFGFILV (also called comparative peptide of Eguchi et al. 2006) [1A9V] | 3.06 |

Incoming: Hello, please tell me recorded In vitro binding affinity (relative affinity) for this one: FLPFGFILV (also called candidate peptide) [IL13RA2-B]
Outgoing: 0.49

Incoming: // fetch In vitro binding affinity (relative affinity) given entry ILPFGFILA (also called 119A) [1I9A]
Outgoing: 2.22

Incoming: Specify In vitro binding affinity (relative affinity) for FLPFGFILM [1F9M] and stop.
Outgoing: 2.62
